# System: Staphylococcus saprophyticus ATCC 49907
# Type: cell-based
# Condition Set: ATCC 49907
Bridge positions count the residues as written; N and C are the ends. Square brackets hold non-standard residues; d marks the D form. Peptide text beside a SMILES is read from it. ξ: configuration not given here. dNMeF = CN[C@H](Cc1ccccc1)C(=O)O; Ile(3ξ) = CCC(C)[C@H](N)C(=O)O
Catalogue of MIC readings, one per entry.

Solved cases (2 shown):
| Compound | MIC |
| --- | --- |
| CC[C@@H](C)[C@@H](NC(=O)[C@@H](CCCNC(=N)N)NC(=O)[C@H](CCCNC(=N)N)NC(=O)[C@@H](NC(=O)[C@@H](Cc1ccccc1)NC)[C@@H](C)CC)C(=O)N[C@H](C(=O)N[C@@H](CO)C(=O)N[C@H]1C(=O)N[C@@H](CCCNC(=N)N)C(=O)N[C@@H](CC(C)C)C(=O)N[C@@H]([C@@H](C)CC)C(=O)O[C@H]1C)[C@@H](C)CC [Compound 31, Arg3-D-Arg4-Arg9-Leu10-teixobactin] (H-[dNMeF]IR[dR][dI]IS[dT]RLI; ester 8-C) | <0.0625 mg/L |
| CCC(C)[C@@H]1NC(=O)[C@H](CCCNC(=N)N)NC(=O)[C@H](NC(=O)[C@H](CO)NC(=O)[C@@H](NC(=O)[C@H](NC(=O)[C@@H](CCC(N)=O)NC(=O)[C@H](CO)NC(=O)[C@@H](NC(=O)[C@@H](Cc2ccccc2)NC)[C@@H](C)CC)[C@H](C)CC)[C@@H](C)CC)[C@H](C)OC(=O)[C@H]([C@@H](C)CC)NC1=O (stereo partly drawn) [Compound 34, Arg9-Ile10-teixobactin] (H-[dNMeF]IS[dQ][dI]IS[dT]R[Ile(3ξ)]I; ester 8-C) | <0.0625 mg/L |

// moving on: another record for MIC
[Q] Which MIC value is on record for CC[C@@H](C)[C@@H](NC(=O)[C@@H](CCC(N)=O)NC(=O)[C@H](CCCNC(=N)N)NC(=O)[C@@H](NC(=O)[C@@H](Cc1ccccc1)NC)[C@@H](C)CC)C(=O)N[C@H](C(=O)N[C@@H](CO)C(=O)N[C@H]1C(=O)N[C@@H](C)C(=O)N[C@@H](CC(C)C)C(=O)N[C@@H]([C@@H](C)CC)C(=O)O[C@H]1C)[C@@H](C)CC [Compound 25, Arg3-Leu10-teixobactin] (H-[dNMeF]IR[dQ][dI]IS[dT]ALI; ester 8-C) ?
[A] <0.0625 mg/L
